# assay protocol: Chidamide pharmacokinetics in patients (compartmental modeling, Phoenix Winnonlin 7.0)
# Format: in vivo
# applied conditions: male, human, plasma; 30 mg (N = 3), mCRPC patients, after first administration; read-out: AUC0–24 h, Mean
observation type: AUC(0-t) (ng·h/mL)

{"compound": "Nc1cc(F)ccc1NC(=O)c1ccc(CNC(=O)/C=C/c2cccnc2)cc1 [chidamide, Chidamide]", "data value": 2860}

----------
# assay protocol: Chidamide pharmacokinetics in patients (compartmental modeling, Phoenix Winnonlin 7.0)
# Type: in vivo
# applied conditions: male, human, plasma; 25 mg (N = 11), mCRPC patients, after first administration

{"compound": "Nc1cc(F)ccc1NC(=O)c1ccc(CNC(=O)/C=C/c2cccnc2)cc1 [chidamide, Chidamide]", "Cmax": "91.2 ng/mL"}
